Each entry below carries its recorded MIC.
# Test system: Propionibacterium acnes
# Protocol summary: Anti-bacterial assay (growth inhibition, MIC/MBC by broth microdilution)
# Format: cell-based
# Experimental conditions: P. acnes, broth microdilution
// units = µg/mL; emit number, no label

These solved cases illustrate the format of a correct answer.
C[C@@H]1CC[C@]2(C(=O)O)CC[C@]3(C)C(=CC[C@@H]4[C@@]5(C)C[C@@H](O)[C@H](O)C(C)(C)[C@@H]5CC[C@]43C)[C@@H]2[C@]1(C)O | 100
C[C@@H]1CC[C@]2(C(=O)O)CC[C@]3(C)C(=CC[C@@H]4[C@@]5(C)C[C@@H](O)[C@H](OC(=O)/C=C\c6ccc(O)cc6)C(C)(C)[C@@H]5CC[C@]43C)[C@@H]2[C@]1(C)O (relative stereo) [Compound 18, 3-O-cis-p-coumaroyl tormentic acid] | 100

Now let's try a different one.
query: Entry C[C@@H]1CC[C@]2(C(=O)O)CC[C@]3(C)C(=CC[C@@H]4[C@@]5(C)C[C@@H](O)[C@H](OC(=O)/C=C/c6ccc(O)cc6)C(C)(C)[C@@H]5CC[C@]43C)[C@@H]2[C@]1(C)O (relative stereo) [Compound 17, 3-O-trans-p-coumaroyl tormentic acid] needs its MIC filled in; supply it.
result: 100

Values compiled from paper PMC5454942.
